experimentSummary: Plasma profile in rats after 10 mg/kg oral dose of Compound 22 sodium salt
Assay type: in vivo
statedConditions: rat, after a 10 mg/kg oral dose of Compound 22 (sodium salt, FIG. 25), male rats

>  <compound>
O=C(O)COC[C@H]1CC[C@H](COC(=O)N(c2ccccc2)c2ccc(Cl)cc2)CC1 [Compound 22]

>  <unitAnnotation>
h

>  <Tmax>
1.5

$$$$

---

experimentSummary: Pharmacokinetics in rats after oral administration of Compound 99
Format: in vivo, Sprague-Dawley rat
statedConditions: Sprague-Dawley, rat; plasma analyte after 1.25 mg/kg oral dose of Compound 99, male rats

>  <compound>
O=C(O)COC[C@H]1CC[C@H](COC(=O)N(c2ccccc2)c2ccc(Cl)cc2)CC1 [Compound 22]

>  <AUC(0-t), ng·h/mL>
935

$$$$
>  <compound>
O=C(COC[C@H]1CC[C@H](COC(=O)N(c2ccccc2)c2ccc(Cl)cc2)CC1)NCCS(=O)(=O)O [Compound 99]

>  <AUC(0-t), ng·h/mL>
11.9

$$$$
